Provide the recorded Canarygrass plant response rating (0 to 100 scale) for the entries that follow.
System: canarygrass (Phalaris minor)
Assay: Test B postemergence plant response
Assay type: in vivo
Conditions: 62 g ai/ha, postemergence; 0 is no effect, 100 is complete control; 13 to 15 days

Tell me measured Canarygrass plant response rating (0 to 100 scale) for `CCCc1ncc(C(=O)C2=C(O)CCCC2=O)c(=O)n1-c1ccccc1C` please. 0

Tell me measured Canarygrass plant response rating (0 to 100 scale) for `COCCCn1c(-c2cc(F)cc(F)c2)ncc(C(=O)C2=C(O)CCCC2=O)c1=O` please. 30

Tell me measured Canarygrass plant response rating (0 to 100 scale) for CCCc1ncc(C(=O)C2=C(O)CCCC2=O)c(=O)n1CC1CCCO1 (centres unmarked) please. 0

Tell me measured Canarygrass plant response rating (0 to 100 scale) for `O=C1CCCC(O)=C1C(=O)c1cnc(-c2ccccc2)n(C2CCCC2)c1=O` please. 0

Tell me measured Canarygrass plant response rating (0 to 100 scale) for `CCCn1c(-c2cc(F)cc(F)c2)ncc(C(=O)C2=C(O)CCCC2=O)c1=O` please. 45

Each recorded value in this set is attributed to patent US8952024B2.
